Assay target: UniProt:P41145
Protocol description: κ-opioid receptor [35S]GTPγS functional assay (HEK-293 cells)
Type: biochemical
Quantity measured: EC50 (nM)

N[C@]12CC[C@@]3(OC1)[C@H]1Cc4ccc(O)cc4[C@@]3(CCN1CC1CC1)C2 = 0.48
O=C(N[C@]12CC[C@@]3(OC1)[C@H]1Cc4ccc(O)cc4[C@@]3(CCN1CC1CC1)C2)c1ccccc1 = 0.14
COc1ccc2c(c1)[C@]13CCN(CC4CC4)[C@H](C2)[C@]12CC[C@@](NC(=O)C(C)(C)C)(CO2)C3 = 3.25
O=C1O[C@@]23CC[C@]1(O)C[C@@]21CCN(CC2CC2)[C@@H]3Cc2ccc(O)cc21 = 54.7
COc1ccc2c(c1)[C@]13CCN(CC4CC4)[C@H](C2)[C@]12CC[C@](O)(C3)C(=O)O2 = 2850
COc1ccc2c(c1)[C@]13CCN(CC4CC4)[C@H](C2)[C@]12CC[C@](N)(C3)C(=O)O2 = 3010

---

Assay target: μ-opioid receptor (Homo sapiens (Human))
Protocol description: μ-opioid receptor functional assay (U-2 OS cells)
Format: biochemical
Reported conditions: U-2 OS cells; read-out: Opioid Receptor μ EC50
pEC50: −log10 of the molar value.
Quantity measured: pEC50

COc1ccc2c(c1)[C@]13CCN(CC4CC4)[C@H](C2)[C@]12CC[C@@](N(Cc1ccccc1)Cc1ccccc1)(CO2)C3 = 7.58

---

Reported log10 of EC50 values follow for various compounds
Assay target: μ-opioid receptor (Homo sapiens (Human))
Protocol description: μ-opioid receptor functional assay (U-2 OS cells)
Type: biochemical
Quantity measured: log10 of EC50 (log10 of the value in nM)

COc1ccc2c(c1)[C@]13CCN(CC4CC4)[C@H](C2)[C@]12CC[C@@](Nc1ccc(C(C)(C)C)cc1)(CO2)C3 = 0.31
CC(C)(C)C(=O)N[C@]12CC[C@@]3(OC1)[C@H]1Cc4ccc(O)cc4[C@@]3(CCN1CC1CC1)C2 = -0.55
COc1ccc2c(c1)[C@]13CCN(CC4CC4)[C@H](C2)[C@]12CC[C@@](NS(=O)(=O)c1ccc(Cl)cc1)(CO2)C3 = -0.60
COc1ccc2c(c1)[C@]13CCN(CC4CC4)[C@H](C2)[C@]12CC[C@@](NC(=O)c1ccc(Cl)cc1)(CO2)C3 = 0.51
COc1ccc2c(c1)[C@]13CCN(CC4CC4)[C@H](C2)[C@]12CC[C@@](N)(CO2)C3 = 1.95
O=C(N[C@]12CC[C@@]3(OC1)[C@H]1Cc4ccc(O)cc4[C@@]3(CCN1CC1CC1)C2)c1ccccc1 = -1.43
COc1ccc2c(c1)[C@]13CCN(CC4CC4)[C@H](C2)[C@]12CC[C@@](NC(=O)C(C)(C)C)(CO2)C3 = 1.94
COc1ccc2c(c1)[C@]13CCN(CC4CC4)[C@H](C2)[C@]12CC[C@@](NCC1CCCCC1)(CO2)C3 = -1.48

---

Assay target: recombinant human kappa opioid receptor (κ) (Homo sapiens (Human))
Protocol description: κ-opioid receptor radioligand dose-displacement binding assay (HEK-293 cells)
Binary label based on Ki with cut-off 0.1 nM: below gives 1, not below gives -1.

COc1ccc2c(c1)[C@]13CCN(CC4CC4)[C@H](C2)[C@]12CC[C@@](NCC1CCCCC1)(CO2)C3 = 1
COc1ccc2c(c1)[C@]13CCN(CC4CC4)[C@H](C2)[C@]12CC[C@@](NC(=O)CC(F)(F)F)(CO2)C3 = -1
COc1ccc2c(c1)[C@]13CCN(CC4CC4)[C@H](C2)[C@]12CC[C@](O)(C3)C(=O)O2 = -1
COc1ccc2c(c1)[C@]13CCN(CC4CC4)[C@H](C2)[C@]12CC[C@@](N)(CO2)C3 = -1
COc1ccc2c(c1)[C@]13CCN(CC4CC4)[C@H](C2)[C@]12CC[C@@](NC(=O)C(C)(C)C)(CO2)C3 = -1
N[C@]12CC[C@@]3(OC1)[C@H]1Cc4ccc(O)cc4[C@@]3(CCN1CC1CC1)C2 = 1
COc1ccc2c(c1)[C@]13CCN(CC4CC4)[C@H](C2)[C@]12CC[C@@](NC(=O)CCc1ccccc1)(CO2)C3 = -1
COc1ccc2c(c1)[C@]13CCN(CC4CC4)[C@H](C2)[C@]12CC[C@@](NC(=O)c1ccc(Cl)cc1)(CO2)C3 = -1
COc1ccc2c(c1)[C@]13CCN(CC4CC4)[C@H](C2)[C@]12CC[C@@](NCc1ccccc1)(CO2)C3 = 1
COc1ccc2c(c1)[C@]13CCN(CC4CC4)[C@H](C2)[C@]12CC[C@@](N(Cc1ccccc1)Cc1ccccc1)(CO2)C3 = -1
COc1ccc2c(c1)[C@]13CCN(CC4CC4)[C@H](C2)[C@]12CC[C@@](NS(=O)(=O)c1ccc(Cl)cc1)(CO2)C3 = 1
COc1ccc2c(c1)[C@]13CCN(CC4CC4)[C@H](C2)[C@]12CC[C@@](NC(=O)c1ccccc1)(CO2)C3 = 1
COc1ccc2c(c1)[C@]13CCN(CC4CC4)[C@H](C2)[C@]12CC[C@@](NC(=O)C1CC1)(CO2)C3 = -1
COc1ccc2c(c1)[C@]13CCN(CC4CC4)[C@H](C2)[C@]12CC[C@](N)(C3)C(=O)O2 = -1

---

Assay target: UniProt P35372
Protocol description: μ-opioid receptor functional assay (U-2 OS cells)
Type: biochemical
Quantity measured: EC50 (nM)

COc1ccc2c(c1)[C@]13CCN(CC4CC4)[C@H](C2)[C@]12CC[C@@](NC(=O)c1ccccc1)(CO2)C3 = 7.53
COc1ccc2c(c1)[C@]13CCN(CC4CC4)[C@H](C2)[C@]12CC[C@@](N1CCCC1)(CO2)C3 = 255
COc1ccc2c(c1)[C@]13CCN(CC4CC4)[C@H](C2)[C@]12CC[C@@](NCc1ccccc1)(CO2)C3 = 2.08
O=C1O[C@@]23CC[C@]1(O)C[C@@]21CCN(CC2CC2)[C@@H]3Cc2ccc(O)cc21 = 9.17

---

Recorded Emax for the following molecules
Assay target: μ-opioid receptor (Homo sapiens (Human))
Protocol description: μ-opioid receptor functional assay (U-2 OS cells)
Type: biochemical
Reported conditions: U-2 OS cells; relative to DAMGO
Experimental: [^35S]GTPγS functional assays were conducted using freshly thawed μ-receptor membranes prepared in-house from a cell line expressing recombinant μ opioid receptor in a HEK-293, CHO or U-2 OS cell background, or purchased from a commercial source (Perkin Elmer, Shelton, Conn.; or DiscovRx, Fremont, Calif.). […] BetaScint scintillation cocktail (Perkin Elmer, Shelton, Conn.) was added (50 μl/well) and plates were counted using a Packard Top-Count for 1 min/well. […]
Quantity measured: Emax (%)

COc1ccc2c(c1)[C@]13CCN(CC4CC4)[C@H](C2)[C@]12CC[C@@](NS(=O)(=O)c1ccc(Cl)cc1)(CO2)C3 = 71.7
COc1ccc2c(c1)[C@]13CCN(CC4CC4)[C@H](C2)[C@]12CC[C@@](N)(CO2)C3 = 106
COc1ccc2c(c1)[C@]13CCN(CC4CC4)[C@H](C2)[C@]12CC[C@@](Nc1ccccc1)(CO2)C3 = 69
O=C(N[C@]12CC[C@@]3(OC1)[C@H]1Cc4ccc(O)cc4[C@@]3(CCN1CC1CC1)C2)c1ccccc1 = 112
COc1ccc2c(c1)[C@]13CCN(CC4CC4)[C@H](C2)[C@]12CC[C@@](NC(=O)C(C)(C)C)(CO2)C3 = 92.7
COc1ccc2c(c1)[C@]13CCN(CC4CC4)[C@H](C2)[C@]12CC[C@@](NC(=O)CC(F)(F)F)(CO2)C3 = 98.7
COc1ccc2c(c1)[C@]13CCN(CC4CC4)[C@H](C2)[C@]12CC[C@@](N1CCOCC1)(CO2)C3 = 38.7

---

Assay target: κ-opioid receptor (Homo sapiens (Human), UniProt P41145)
Protocol description: κ-opioid receptor functional assay (U-2 OS cells)
Format: biochemical
pEC50: −log10 of the molar value.
Quantity measured: pEC50

COc1ccc2c(c1)[C@]13CCN(CC4CC4)[C@H](C2)[C@]12CC[C@@](NC(=O)CCc1ccccc1)(CO2)C3 = 8.55
COc1ccc2c(c1)[C@]13CCN(CC4CC4)[C@H](C2)[C@]12CC[C@@](NC(=O)c1ccc(Cl)cc1)(CO2)C3 = 8.49
COc1ccc2c(c1)[C@]13CCN(CC4CC4)[C@H](C2)[C@]12CC[C@@](Nc1ccccc1)(CO2)C3 = 9.85
COc1ccc2c(c1)[C@]13CCN(CC4CC4)[C@H](C2)[C@]12CC[C@@](NC(=O)c1ccccc1)(CO2)C3 = 9.38

---

Assay target: κ-opioid receptor (Homo sapiens (Human), UniProt P41145)
Protocol description: κ-opioid receptor functional assay (U-2 OS cells)
Assay type: biochemical
Reported conditions: U-2 OS cells; read-out: Opioid Receptor κ EC50
Quantity measured: EC50 (nM)

COc1ccc2c(c1)[C@]13CCN(CC4CC4)[C@H](C2)[C@]12CC[C@@](N(Cc1ccccc1)Cc1ccccc1)(CO2)C3 [Compound 7] = 2.99
